Data provenance: the supplement of paper PMC8728848

target_entity: Gal(b1-3)GlcNAc(b1-2)Man
assay_text: glycan array binding signal (z-score within array); higher = stronger binding
experimental_context: glycan notation: IUPAC condensed, linker removed
Shown is part of a subset that was picked to be rich in the strongest signals.
measured_parameter: glycan array binding signal (z-score)
Please give the numeric answer without any surrounding text.

Supply measured glycan array binding signal (z-score) of SP16665A-bot-344-23-344 (Bacteroides ovatus) (protein) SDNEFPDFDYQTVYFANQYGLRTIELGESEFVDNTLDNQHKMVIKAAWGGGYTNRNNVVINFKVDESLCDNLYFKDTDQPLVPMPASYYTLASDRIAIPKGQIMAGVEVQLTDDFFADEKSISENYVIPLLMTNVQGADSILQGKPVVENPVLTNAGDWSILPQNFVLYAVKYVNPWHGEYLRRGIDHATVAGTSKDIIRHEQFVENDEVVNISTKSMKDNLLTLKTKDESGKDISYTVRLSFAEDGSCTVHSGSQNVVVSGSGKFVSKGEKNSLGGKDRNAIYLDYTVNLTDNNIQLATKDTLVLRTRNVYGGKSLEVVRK in your reply.
2.76
